System: C. albicans clinical reference strain SC5314
Assay: Adenylate kinase (AK) release assay of yeast cell lysis
Type: cell-based, Candida albicans
Design: dose or concentration left out as unconfirmed
Settings: extracellular AK activity relative to DMSO-treated cells
result type: Fold increase in AK release (Fold)
The reply should contain only the number, in Fold.

`CO[C@H]1C[C@@H]2CC[C@@H](C)[C@@](O)(O2)C(=O)C(=O)N2CCCC[C@H]2C(=O)O[C@H]([C@H](C)C[C@@H]2CC[C@@H](O)[C@H](OC)C2)CC(=O)[C@H](C)/C=C(\C)[C@@H](O)[C@@H](OC)C(=O)[C@H](C)C[C@H](C)/C=C/C=C/C=C/1C` has a reported Fold increase in AK release of 17

`CC[n+]1c(/C=C/N(C)c2ccccc2)n(-c2ccccc2)c2ccc(-c3nc4ccccc4s3)cc21.[I-]` has a reported Fold increase in AK release of 12

`CN[C@@H]1C[C@H]2O[C@@](C)([C@@H]1OC)n1c3ccccc3c3c4c(c5c6ccccc6n2c5c31)C(=O)NC4` has a reported Fold increase in AK release of 48

`COc1ccc2c(c[n+](C)c3c4cc5c(cc4ccc23)OCO5)c1OC` has a reported Fold increase in AK release of 5

`NCCNc1ncc(C(N)=O)c(Nc2cccc(C(F)(F)F)c2)n1` has a reported Fold increase in AK release of 14

`O=C1c2ccccc2-c2nc3nnnn3nc21.O=C1c2ccccc2-c2nn3nnnc3nc21` has a reported Fold increase in AK release of 4
